Just for reference, PubChem BioAssay AID1845217 is where these values come from.

- Test system: VA-ES-BJ tumor spheroid viability
- METHOD: Anticancer human tumor VA-ES-BJ cell line growth inhibition; active means viability on the fitted dose curve at most 10% of control; inactive means the rest;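 further: spheroids exposed to compounds for seven days; percent of DMSO vehicle control viability so 100% = untreated growth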
- CONDITION_SET: second compound 94.9 pM; first compound 0.949 µM; spheroids with HUVEC and MSC
The reply should name one outcome from 1 (active), 0 (inactive)

Illustrative cases are given below, each with its answer.
Cc1sc2c(c1C)C(c1ccc(Cl)cc1)=NC(CC(=O)Nc1ccc(O)cc1)c1nnc(C)n1-2 (centres undefined) + COc1cc2c(cc1O)CCNC21CSC2c3c(OC(C)=O)c(C)c4c(c3C(COC1=O)N1C(O)C3Cc5cc(C)c(OC)c(O)c5C(C21)N3C)OCO4 :: 0
CNCc1ccc(-c2cc(-c3nc(-c4ccc(S(=O)(=O)C(C)C)cc4)cnc3N)on2)cc1 + COc1cc2c(cc1O)CCNC21CSC2c3c(OC(C)=O)c(C)c4c(c3C(COC1=O)N1C(O)C3Cc5cc(C)c(OC)c(O)c5C(C21)N3C)OCO4 :: 1
Cn1ncnc1[C@H]1c2n[nH]c(=O)c3cc(F)cc(c23)N[C@@H]1c1ccc(F)cc1 + COc1cc2c(cc1O)CCNC21CSC2c3c(OC(C)=O)c(C)c4c(c3C(COC1=O)N1C(O)C3Cc5cc(C)c(OC)c(O)c5C(C21)N3C)OCO4 :: 0

Attention now shifts to the item below.
What was the test verdict on O=C(c1cc(Cc2n[nH]c(=O)c3ccccc23)ccc1F)N1CCN(C(=O)C2CC2)CC1 + COc1cc2c(cc1O)CCNC21CSC2c3c(OC(C)=O)c(C)c4c(c3C(COC1=O)N1C(O)C3Cc5cc(C)c(OC)c(O)c5C(C21)N3C)OCO4 ? 0
